Target: T1, human ferroportin (SLC40A1) fused to GFP (human, UniProt Q9NP59 1-571)
T1 sequence (looked up): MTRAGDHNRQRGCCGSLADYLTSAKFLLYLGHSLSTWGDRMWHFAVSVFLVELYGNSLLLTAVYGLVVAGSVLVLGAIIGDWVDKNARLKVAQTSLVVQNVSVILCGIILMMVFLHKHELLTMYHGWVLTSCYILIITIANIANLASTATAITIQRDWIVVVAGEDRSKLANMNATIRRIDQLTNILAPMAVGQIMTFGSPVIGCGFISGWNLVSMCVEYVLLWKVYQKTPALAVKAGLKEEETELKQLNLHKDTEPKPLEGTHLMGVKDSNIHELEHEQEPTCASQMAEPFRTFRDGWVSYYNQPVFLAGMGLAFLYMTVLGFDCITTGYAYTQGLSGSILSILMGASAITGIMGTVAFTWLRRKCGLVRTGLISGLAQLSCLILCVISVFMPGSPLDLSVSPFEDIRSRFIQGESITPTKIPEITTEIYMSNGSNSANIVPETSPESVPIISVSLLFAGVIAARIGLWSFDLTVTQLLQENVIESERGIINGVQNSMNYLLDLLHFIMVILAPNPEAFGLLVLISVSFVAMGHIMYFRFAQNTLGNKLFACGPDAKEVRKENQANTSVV
Assay: cell-based or functional assay
Square brackets hold non-standard residues; d marks the D form. βAla = NCCC(=O)O; Sar = CNCC(=O)O
measurement_label: Potency EC50

Look up Potency EC50 for this binder: H-DTHF[Sar]CIIFGPRSKGWVCK-NH2 (not fully specified (bridges); printed as Hy-DTHF-[Sarc]-CIIFGPRSKGWVCK-NH2; cysteine pairing not given here) [CMPD No. 127]
> 10 µM

Look up Potency EC50 for this binder: DTHFPCIKFKPRSKGWVCK (not fully specified; IVA (isovaleric acid) on side chain of Lys 10; C-terminal amide) [CMPD No. 205]
> 0.3 µM

Look up Potency EC50 for this binder: H-DTHFKCIIFGPRSKGWVCK-NH2 (not fully specified (bridges); printed as Hy-DTHFKCIIFGPRSKGWVCK-NH2; cysteine pairing not given here) [CMPD No. 131]
> 10 µM

Look up Potency EC50 for this binder: H-DTHF[βAla]CIIFGPRSKGWVCK-NH2 (not fully specified (bridges); printed as Hy-DTHF-[β-Ala]-CIIFGPRSKGWVCK-NH2; cysteine pairing not given here) [CMPD No. 129]
> 10 µM

Look up Potency EC50 for this binder: H-DTHFRCIIFGPRSKGWVCK-NH2 (not fully specified (bridges); printed as Hy-DTHFRCIIFGPRSKGWVCK-NH2; cysteine pairing not given here) [CMPD No. 125]
> 10 µM

Look up Potency EC50 for this binder: H-DTHFGCIIFGPRSKGWVCK-NH2 (not fully specified (bridges); printed as Hy-DTHFGCIIFGPRSKGWVCK-NH2; cysteine pairing not given here) [CMPD No. 123]
> 10 µM
